Data origin: patent US4587333A

- System: Escherichia coli 0-111
- method_notes: therapeutic effect to infectious disease of mice
- Type: in vivo
- applied_conditions: 0111; mice infected with Escherichia coli 0-111; subcutaneous (SC); TAN-547 hydrochloride(s)
Strictly below 20 mg/kg in ED50: Satisfied. Otherwise: Not satisfied.

compound	label
CC(N)C(=O)NC(CCCNC(=N)N)C(O)CC(=O)OCC1=C(C(=O)O)N2C(=O)C(NC=O)(NC(=O)CCCC(N)C(=O)O)C2SC1 (stereo not drawn) [TAN-547 A]	Satisfied
CC(N)C(=O)NC(CCCNC(=N)N)C(O)CC(=O)OCC1=C(C(=O)O)N2C(=O)C(NC(=O)CCCC(N)C(=O)O)C2SC1 (stereo not drawn) [TAN-547 D]	Satisfied
CC(N)C(=O)NC(C)C(=O)NC(C)C(=O)NC(CCCNC(=N)N)C(O)CC(=O)OCC1=C(C(=O)O)N2C(=O)C(NC(=O)CCCC(N)C(=O)O)C2SC1 (stereo not drawn) [TAN-547 F]	Not satisfied
CC(N)C(=O)NC(C)C(=O)NC(CCCNC(=N)N)C(O)CC(=O)OCC1=C(C(=O)O)N2C(=O)C(NC(=O)CCCC(N)C(=O)O)C2SC1 (stereo not drawn) [TAN-547 E]	Not satisfied
CC(N)C(=O)NC(C)C(=O)NC(C)C(=O)NC(CCCNC(=N)N)C(O)CC(=O)OCC1=C(C(=O)O)N2C(=O)C(NC=O)(NC(=O)CCCC(N)C(=O)O)C2SC1 (stereo not drawn) [TAN-547 C]	Satisfied
CC(N)C(=O)NC(C)C(=O)NC(CCCNC(=N)N)C(O)CC(=O)OCC1=C(C(=O)O)N2C(=O)C(NC=O)(NC(=O)CCCC(N)C(=O)O)C2SC1 (stereo not drawn) [TAN-547 B]	Satisfied

###

Items are presented alongside their recorded Relative ratio of hydrolysis rate.
- System: β-lactamase produced by Klebsiella oxytoca TN 1719
- method_notes: stability to β-lactamase (relative ratio of hydrolysis rate)
- Assay type: biochemical
- applied_conditions: PCG rated at 100
measure_name: Relative ratio of hydrolysis rate

compound	qual	recorded_result
CC1(C)S[C@@H]2[C@H](NC(=O)Cc3ccccc3)C(=O)N2[C@H]1C(=O)O [PCG, benzylpenicillin, reference compound]	=	100
CCN1CCN(C(=O)N[C@@H](C(=O)N[C@@H]2C(=O)N3C(C(=O)O)=C(CSc4nnnn4C)CS[C@H]23)c2ccc(O)cc2)C(=O)C1=O [CPZ, cefoperazone, reference compound]	=	1.55
CC(N)C(=O)NC(C)C(=O)NC(C)C(=O)NC(CCCNC(=N)N)C(O)CC(=O)OCC1=C(C(=O)O)N2C(=O)C(NC=O)(NC(=O)CCCC(N)C(=O)O)C2SC1 (stereo not drawn) [TAN-547 C]	<	0.01

###

- Tested on: Acinetobacter calcoaceticus IFO 12552
Strictly below 6 µg/mL in MIC: 1.0. Otherwise: 0.0.

compound	label
CC(N)C(=O)NC(CCCNC(=N)N)C(O)CC(=O)OCC1=C(C(=O)O)N2C(=O)C(NC(=O)CCCC(N)C(=O)O)C2SC1 (stereo not drawn) [TAN-547 D]	0.0
CC(N)C(=O)NC(C)C(=O)NC(CCCNC(=N)N)C(O)CC(=O)OCC1=C(C(=O)O)N2C(=O)C(NC=O)(NC(=O)CCCC(N)C(=O)O)C2SC1 (stereo not drawn) [TAN-547 B]	1.0
CC(N)C(=O)NC(C)C(=O)NC(C)C(=O)NC(CCCNC(=N)N)C(O)CC(=O)OCC1=C(C(=O)O)N2C(=O)C(NC=O)(NC(=O)CCCC(N)C(=O)O)C2SC1 (stereo not drawn) [TAN-547 C]	0.0
CC(N)C(=O)NC(C)C(=O)NC(CCCNC(=N)N)C(O)CC(=O)OCC1=C(C(=O)O)N2C(=O)C(NC(=O)CCCC(N)C(=O)O)C2SC1 (stereo not drawn) [TAN-547 E]	0.0
CC(N)C(=O)NC(C)C(=O)NC(C)C(=O)NC(CCCNC(=N)N)C(O)CC(=O)OCC1=C(C(=O)O)N2C(=O)C(NC(=O)CCCC(N)C(=O)O)C2SC1 (stereo not drawn) [TAN-547 F]	0.0
CC(N)C(=O)NC(CCCNC(=N)N)C(O)CC(=O)OCC1=C(C(=O)O)N2C(=O)C(NC=O)(NC(=O)CCCC(N)C(=O)O)C2SC1 (stereo not drawn) [TAN-547 A]	1.0

###

Values of MIC reported for Salmonella typhimurium IFO 12529 appear below.

compound	MIC [µg/mL]
CC(N)C(=O)NC(CCCNC(=N)N)C(O)CC(=O)OCC1=C(C(=O)O)N2C(=O)C(NC=O)(NC(=O)CCCC(N)C(=O)O)C2SC1 (stereo not drawn) [TAN-547 A]	50
CC(N)C(=O)NC(C)C(=O)NC(CCCNC(=N)N)C(O)CC(=O)OCC1=C(C(=O)O)N2C(=O)C(NC=O)(NC(=O)CCCC(N)C(=O)O)C2SC1 (stereo not drawn) [TAN-547 B]	25
CC(N)C(=O)NC(C)C(=O)NC(CCCNC(=N)N)C(O)CC(=O)OCC1=C(C(=O)O)N2C(=O)C(NC(=O)CCCC(N)C(=O)O)C2SC1 (stereo not drawn) [TAN-547 E]	50
CC(N)C(=O)NC(C)C(=O)NC(C)C(=O)NC(CCCNC(=N)N)C(O)CC(=O)OCC1=C(C(=O)O)N2C(=O)C(NC(=O)CCCC(N)C(=O)O)C2SC1 (stereo not drawn) [TAN-547 F]	100
CC(N)C(=O)NC(CCCNC(=N)N)C(O)CC(=O)OCC1=C(C(=O)O)N2C(=O)C(NC(=O)CCCC(N)C(=O)O)C2SC1 (stereo not drawn) [TAN-547 D]	50
CC(N)C(=O)NC(C)C(=O)NC(C)C(=O)NC(CCCNC(=N)N)C(O)CC(=O)OCC1=C(C(=O)O)N2C(=O)C(NC=O)(NC(=O)CCCC(N)C(=O)O)C2SC1 (stereo not drawn) [TAN-547 C]	25

###

- method_notes: stability in aqueous solution
- Assay type: physicochemical
- applied_conditions: acidic aqueous solution

molecule	Stability
CC(N)C(=O)NC(CCCNC(=N)N)C(O)CC(=O)OCC1=C(C(=O)O)N2C(=O)C(NC=O)(NC(=O)CCCC(N)C(=O)O)C2SC1 (stereo not drawn)	Unstable
CC(N)C(=O)NC(C)C(=O)NC(CCCNC(=N)N)C(O)CC(=O)OCC1=C(C(=O)O)N2C(=O)C(NC(=O)CCCC(N)C(=O)O)C2SC1 (stereo not drawn)	Slightly unstable
CC(N)C(=O)NC(CCCNC(=N)N)C(O)CC(=O)OCC1=C(C(=O)O)N2C(=O)C(NC(=O)CCCC(N)C(=O)O)C2SC1 (stereo not drawn)	Slightly unstable
CC(N)C(=O)NC(C)C(=O)NC(C)C(=O)NC(CCCNC(=N)N)C(O)CC(=O)OCC1=C(C(=O)O)N2C(=O)C(NC(=O)CCCC(N)C(=O)O)C2SC1 (stereo not drawn)	Slightly unstable
CC(N)C(=O)NC(C)C(=O)NC(CCCNC(=N)N)C(O)CC(=O)OCC1=C(C(=O)O)N2C(=O)C(NC=O)(NC(=O)CCCC(N)C(=O)O)C2SC1 (stereo not drawn)	Unstable
CC(N)C(=O)NC(C)C(=O)NC(C)C(=O)NC(CCCNC(=N)N)C(O)CC(=O)OCC1=C(C(=O)O)N2C(=O)C(NC=O)(NC(=O)CCCC(N)C(=O)O)C2SC1 (stereo not drawn)	Unstable

###

Values of MIC reported for Bacillus megaterium IFO 12108 appear below.

compound	MIC (mg/L)
CC(N)C(=O)NC(C)C(=O)NC(C)C(=O)NC(CCCNC(=N)N)C(O)CC(=O)OCC1=C(C(=O)O)N2C(=O)C(NC(=O)CCCC(N)C(=O)O)C2SC1 (stereo not drawn)	1.56
CC(N)C(=O)NC(C)C(=O)NC(CCCNC(=N)N)C(O)CC(=O)OCC1=C(C(=O)O)N2C(=O)C(NC=O)(NC(=O)CCCC(N)C(=O)O)C2SC1 (stereo not drawn)	12.5
CC(N)C(=O)NC(CCCNC(=N)N)C(O)CC(=O)OCC1=C(C(=O)O)N2C(=O)C(NC=O)(NC(=O)CCCC(N)C(=O)O)C2SC1 (stereo not drawn)	12.5
CC(N)C(=O)NC(C)C(=O)NC(CCCNC(=N)N)C(O)CC(=O)OCC1=C(C(=O)O)N2C(=O)C(NC(=O)CCCC(N)C(=O)O)C2SC1 (stereo not drawn)	1.56
CC(N)C(=O)NC(CCCNC(=N)N)C(O)CC(=O)OCC1=C(C(=O)O)N2C(=O)C(NC(=O)CCCC(N)C(=O)O)C2SC1 (stereo not drawn)	0.78
CC(N)C(=O)NC(C)C(=O)NC(C)C(=O)NC(CCCNC(=N)N)C(O)CC(=O)OCC1=C(C(=O)O)N2C(=O)C(NC=O)(NC(=O)CCCC(N)C(=O)O)C2SC1 (stereo not drawn)	12.5

###

- method_notes: solubility
- Type: physicochemical
- applied_conditions: dimethylsulfoxide, methanol, acetone, ethyl acetate

molecule	Solubility
CC(N)C(=O)NC(CCCNC(=N)N)C(O)CC(=O)OCC1=C(C(=O)O)N2C(=O)C(NC(=O)CCCC(N)C(=O)O)C2SC1 (stereo not drawn) [TAN-547 D]	Hardly soluble
CC(N)C(=O)NC(C)C(=O)NC(C)C(=O)NC(CCCNC(=N)N)C(O)CC(=O)OCC1=C(C(=O)O)N2C(=O)C(NC=O)(NC(=O)CCCC(N)C(=O)O)C2SC1 (stereo not drawn) [TAN-547 C]	Hardly soluble
CC(N)C(=O)NC(C)C(=O)NC(CCCNC(=N)N)C(O)CC(=O)OCC1=C(C(=O)O)N2C(=O)C(NC=O)(NC(=O)CCCC(N)C(=O)O)C2SC1 (stereo not drawn) [TAN-547 B]	Hardly soluble
